- Tested on: P. aeruginosa PΔ3-Pore cells
- assay details: LC–MS quantification of intracellular accumulation, PΔ3-Pore;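 further: slope of accumulation versus external concentration fitted as a line through zero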
- measurement parameters: 1 min incubation, 10-80 µM
This listing pairs compounds with measured Concentration slopes of accumulation, PΔ3-Pore_1 min.
measured quantity: Concentration slopes of accumulation, PΔ3-Pore_1 min

1. CCn1cc(C(=O)O)c(=O)c2cc(F)c(N3CCNC(C)C3)c(F)c21 (stereo not shown) = 3.95
2. CC(Cc1ccc(O)cc1)NCC(O)c1cc(O)cc(O)c1 (stereo not shown) = 2.02
3. C[C@@H]1CN(c2c(F)c(N)c3c(=O)c(C(=O)O)cn(C4CC4)c3c2F)C[C@H](C)N1 = 4.64
4. CC(C)(C)OC(=O)N1[C@H](CCC2CCCCC2)CNC(=O)[C@@H]1Cc1cc(F)cc(F)c1 = 31.28

---

# Concentration slopes of accumulation, PAO1-Pore_1 min listing for each entry below
- Test system: P. aeruginosa PAO1-Pore cells
- assay details: LC–MS quantification of intracellular accumulation, PAO1-Pore
- measurement parameters: 1 min incubation, 10-80 µM
Where a name gives a salt, the structure may show the parent alone.
measured quantity: Concentration slopes of accumulation, PAO1-Pore_1 min

1) CC(CCc1ccccc1)NCC(O)c1ccc(O)c(C(N)=O)c1 (stereo not shown) [OU-0000748, Labetalol HCl] = 21.98
2) Cc1oc(=O)oc1CN1CCN(c2cc3c(cc2F)c(=O)c(C(=O)O)c2n3C(C)S2)CC1 (stereo not shown) = 7.49
3) O=C(c1ccc(OCCN2CCCCC2)cc1)c1c(-c2ccc(O)cc2)sc2cc(O)ccc12 [OU-0000741, Raloxifene HCl] = 56.66
4) CCn1cc(C(=O)O)c(=O)c2cc(F)c(N3CCNC(C)C3)c(F)c21 (stereo not shown) = 2.85
5) CCOC(=O)NC(=S)Nc1ccccc1NC(=S)NC(=O)OCC [OU-0000837, Thiophanate] = 3.05
6) COc1c(N2C[C@@H]3CCCN[C@@H]3C2)c(F)cc2c(=O)c(C(=O)O)cn(C3CC3)c12 [OU-0000626, MOXIFLOXACIN HYDROCHLORIDE] = 3.02
7) CCn1cc(C(=O)O)c(=O)c2cc3c(cc21)OCO3 = 8.17

---

- Tested on: P. aeruginosa PΔ3-Pore cells
- assay details: LC–MS quantification of intracellular accumulation, PΔ3-Pore;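 further: slope of accumulation versus external concentration fitted as a line through zero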
- measurement parameters: 1 min incubation, 10-80 µM
Counter-ions that a name gives are not always drawn.
Tick 1.0 if Concentration slopes of accumulation, PΔ3-Pore_1 min is 5 or greater. Tick 0.0 if Concentration slopes of accumulation, PΔ3-Pore_1 min is less than 5.

1. CCCC[C@H]1CNC(=O)[C@H](Cc2cc(F)cc(F)c2)N1 = 1.0
2. N[C@@H](CC(=O)N1CCn2c(nnc2C(F)(F)F)C1)Cc1cc(F)c(F)cc1F [OU-0000833, Sitagliptin Monophosphate Monohydrate] = 0.0
3. O=C(O)c1cn(C2CC2)c2cc(N3CCNCC3)c(F)cc2c1=O = 0.0
4. CCOC(=O)NC(=S)Nc1ccccc1NC(=S)NC(=O)OCC [OU-0000837, Thiophanate] = 1.0
5. COc1c(N2CCNC(C)C2)c(F)cc2c(=O)c(C(=O)O)cn(C3CC3)c12 (stereo not shown) = 0.0
6. CC[C@H]1CN2CCc3cc(OC)c(OC)cc3[C@@H]2C[C@@H]1C[C@H]1NCCc2cc(OC)c(OC)cc21.Cl.Cl [OU-0032504, Emetine DIHCl] = 0.0
7. O=C1NC[C@@H](CCC2CCCCC2)N[C@H]1Cc1cc(F)cc(F)c1 = 1.0
8. CCn1cc(C(=O)O)c(=O)c2cc(F)c(N3CCN(C)CC3)cc21 [OU-0000619, PEFLOXACINE MESYLATE] = 1.0
9. COc1ccc2cc1Oc1ccc(cc1)C[C@H]1c3cc(c(OC)cc3CCN1C)Oc1c(OC)c(OC)cc3c1[C@H](C2)N(C)CC3 = 1.0
10. CCN1CCCC1CNC(=O)c1cc(S(N)(=O)=O)ccc1OC.Cl (stereo not shown) [OU-0032505, Sulpiride HCl] = 1.0
11. COc1ccc(CCN(C)CCCC(C#N)(c2ccc(OC)c(OC)c2)C(C)C)cc1OC (stereo not shown) [OU-0000734, Verapamil HCl] = 1.0
12. COc1cnc(NS(=O)(=O)c2ccc(N)cc2)nc1 = 0.0
13. COc1c(N2C[C@@H]3CCCN[C@@H]3C2)c(F)cc2c(=O)c(C(=O)O)cn(C3CC3)c12 [OU-0000626, MOXIFLOXACIN HYDROCHLORIDE] = 0.0
14. CCn1cc(C(=O)O)c(=O)c2cc3c(cc21)OCO3 = 1.0
15. CC(=O)NC[C@H]1CN(c2ccc(N3CCOCC3)c(F)c2)C(=O)O1 = 1.0
16. O=C1CC2(CCCC2)CC(=O)N1CCCCN1CCN(c2ncccn2)CC1 [OU-0000735, Buspirone HCl] = 1.0
17. C[C@H]1COc2c(N3CCN(C)CC3)c(F)cc3c(=O)c(C(=O)O)cn1c23 = 0.0

---

- Test system: P. aeruginosa PΔ3 cells
- measurement parameters: 1 min incubation, 10-80 µM
Counter-ions that a name gives are not always drawn.
Entries and their measured Concentration slopes of accumulation, PΔ3_1 min follow.
measured quantity: Concentration slopes of accumulation, PΔ3_1 min

1) C=CCN1CC(CCCC)N(C(=O)OC(C)(C)C)C(Cc2ccccc2)C1=O (centres unmarked) [OU-0032511] = 4.08
2) COCCCC/C(=N\OCCN)c1ccc(C(F)(F)F)cc1 [OU-0000742, Fluvoxamine] = 4.15
3) CNC(=C[N+](=O)[O-])NCCSCc1ccc(CN(C)C)o1 [OU-0000840, Ranitidine HCl] = 2.62
4) CCn1cc(C(=O)O)c(=O)c2cc(F)c(N3CCN(C)CC3)cc21 [OU-0000619, PEFLOXACINE MESYLATE] = 21.54
5) CCOC(=O)NC(=S)Nc1ccccc1NC(=S)NC(=O)OCC [OU-0000837, Thiophanate] = 3.05

---

- Tested on: P. aeruginosa PΔ3-Pore cells
- assay details: LC–MS quantification of intracellular accumulation, PΔ3-Pore;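 further: slope of accumulation versus external concentration fitted as a line through zero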
- measurement parameters: 1 min incubation, 10-80 µM
Mark each entry 1 (yes) if its Concentration slopes of accumulation, PΔ3-Pore_1 min sits below 6, and 0 (no) for all others.

1) COc1cccc2c1C(=O)c1c(O)c3c(c(O)c1C2=O)C[C@@](O)(C(=O)CO)C[C@@H]3O[C@H]1C[C@H](N)[C@H](O)[C@H](C)O1 [OU-0000835, Doxorubicin] = 1 (yes)
2) NC(N)=Nc1nc(CSCCC(N)=NS(N)(=O)=O)cs1 [OU-0000841, Famotidine] = 0 (no)
3) COCCCC/C(=N\OCCN)c1ccc(C(F)(F)F)cc1 [OU-0000742, Fluvoxamine] = 0 (no)
4) C=CCN1CC(CCCC)N(C(=O)OC(C)(C)C)C(Cc2ccccc2)C1=O (centres unmarked) [OU-0032511] = 1 (yes)
5) CCn1cc(C(=O)O)c(=O)c2cc(F)c(N3CCNCC3)cc21 [OU-0000789, Norfloxacin] = 0 (no)
6) O=C1N[C@@H](Cc2c[nH]c3ccccc23)C(=O)N2CCC[C@@H]12 [OU-0032512] = 1 (yes)
7) Cc1cc(C)nc(NS(=O)(=O)c2ccc(N)cc2)n1 [OU-0000689, SULFAMETHAZINE] = 1 (yes)
8) CC1CCc2c(N3CCC(O)CC3)c(F)cc3c(=O)c(C(=O)O)cn1c23 (centres unmarked) [OU-0000628, nadifloxacin] = 0 (no)

---

Reported Concentration slopes of accumulation, PΔ3-Pore_40min by item:
- System: P. aeruginosa PΔ3-Pore cells
- assay details: LC–MS quantification of intracellular accumulation, PΔ3-Pore;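 further: slope of accumulation versus external concentration fitted as a line through zero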
- measurement parameters: 40 min incubation, 10-80 µM
Structures can show the parent of a compound that is named as a salt.
measured quantity: Concentration slopes of accumulation, PΔ3-Pore_40min

1. CNC(=C[N+](=O)[O-])NCCSCc1ccc(CN(C)C)o1 [OU-0000840, Ranitidine HCl] = 1.37
2. COc1cnc(NS(=O)(=O)c2ccc(N)cc2)nc1 = 3.14
3. COc1ccc2cc1Oc1ccc(cc1)C[C@H]1c3cc(c(OC)cc3CCN1C)Oc1c(OC)c(OC)cc3c1[C@H](C2)N(C)CC3 = 8.93
4. Cc1cc(C)nc(NS(=O)(=O)c2ccc(N)cc2)n1 = 1.19
5. O=C1CC2(CCCC2)CC(=O)N1CCCCN1CCN(c2ncccn2)CC1 [OU-0000735, Buspirone HCl] = 9.56
6. C[C@H]1COc2c(N3CCN(C)CC3)c(F)cc3c(=O)c(C(=O)O)cn1c23 = 5.77
7. CCCC[C@H]1CNC(=O)[C@H](Cc2cc(F)cc(F)c2)N1 = 24.02
8. O=C1N[C@@H](Cc2c[nH]c3ccccc23)C(=O)N2CCC[C@@H]12 = 2.97
9. CCN1CCN(c2cc3c(cc2F)c(=O)c(C(=O)O)cn3C2CC2)CC1 = 29.82
